ASSAY_TEXT: Toxicity assessed by Rotarod test (locomotor deficit) in mice.
Assay type: organism-based
CONDITION_LABEL: mouse, in vivo
READOUT: TD50 (µmol/kg)
Report the figure in µmol/kg without appending any unit label.

Examples with their reported TD50 follow.
CCNC(=O)N/N=C(\c1ccc(N)cc1)c1cc2c(cc1CC(=O)OCC)OCO2 ... 227
CCCNC(=O)N/N=C(\c1ccc(N)cc1)c1cc2c(cc1CC(=O)OC)OCO2 ... 177
CCCOC(=O)Cc1cc2c(cc1/C(=N/NC(=O)NCC)c1ccc(N)cc1)OCO2 ... 187
CNC(=O)NC(=O)Cc1ccc2c(c1)OCO2 ... 219

Consider now this further molecule.
Query string: TD50 lookup needed for CCCCNC(=O)N/N=C(\c1ccc(N)cc1)c1cc2c(cc1CC(=O)OC)OCO2 , thanks.
Result string: 188
